test system: EKVX; test: NCI tumour cell line growth inhibition, 48 h
Active and inactive are the calls of the source. No stated cut-off is given here; in the data, active = GI50 up to about 1.1 µM and inactive = higher.
Your answer must be one of the following: active, inactive

Asked: Dear all, I need the recorded test outcome for CC(=O)C1=C(O)C(N)C2Cc3c(c(O)c4c(O)c(C)ccc4c3C)C(=O)C2(O)C1=O (stereo not given) , thank you.
Given back: inactive

Asked: Dear all, I need the recorded test outcome for `CN(C)C(=S)N/N=C\C=N/NC(=S)N(C)C` , thank you.
Given back: active

Asked: Dear all, I need the recorded test outcome for CC(=O)Nc1ccc2c3c(cc(O)c2c1)N(C(=O)CCCCCC(=O)Nc1ccc2c4c(cc(O)c2c1)N(C(=O)OC(C)(C)C)CC4CCl)CC3CCl (stereo not given) , thank you.
Given back: inactive

Asked: Dear all, I need the recorded test outcome for N#C/C(=C1\SC(/N=N/c2ccccc2)C(=O)N1c1ccccc1)c1nc2ccccc2[nH]1 (stereo not given) , thank you.
Given back: inactive

Asked: Dear all, I need the recorded test outcome for `COc1ccc(Nc2nc(N)c(C(=O)c3ccco3)s2)cc1` , thank you.
Given back: inactive

Asked: Dear all, I need the recorded test outcome for C[N+]1(C)CCc2cc(O)c(O)cc2C1Cc1ccc(O)c(O)c1 (stereo not given) , thank you.
Given back: inactive

Asked: Dear all, I need the recorded test outcome for `CN(C)CC[N+](C)(C)[BH2-]C(O)O` , thank you.
Given back: inactive

Asked: Dear all, I need the recorded test outcome for `CS/C(=N\c1ccc([N+](=O)[O-])cc1C#N)NC(=O)c1ccccc1` , thank you.
Given back: inactive

Asked: Dear all, I need the recorded test outcome for CCOC(=O)c1nc2c3c(ncn2n1)Oc1c(c(-c2ccccc2)nn1-c1ccccc1)C3c1ccc(OC)c(OC)c1 (stereo not given) , thank you.
Given back: inactive

Asked: Dear all, I need the recorded test outcome for COc1ccc(N2C(=O)C3c4[nH]c5c(C)cccc5c4C4CCC(C(C)(C)C)CC4C3C2=O)cc1 (stereo not given) , thank you.
Given back: inactive

From: ChEMBL document CHEMBL1201862
